- Measurement target: Yer184c (UniProt P39961)
- Sequence: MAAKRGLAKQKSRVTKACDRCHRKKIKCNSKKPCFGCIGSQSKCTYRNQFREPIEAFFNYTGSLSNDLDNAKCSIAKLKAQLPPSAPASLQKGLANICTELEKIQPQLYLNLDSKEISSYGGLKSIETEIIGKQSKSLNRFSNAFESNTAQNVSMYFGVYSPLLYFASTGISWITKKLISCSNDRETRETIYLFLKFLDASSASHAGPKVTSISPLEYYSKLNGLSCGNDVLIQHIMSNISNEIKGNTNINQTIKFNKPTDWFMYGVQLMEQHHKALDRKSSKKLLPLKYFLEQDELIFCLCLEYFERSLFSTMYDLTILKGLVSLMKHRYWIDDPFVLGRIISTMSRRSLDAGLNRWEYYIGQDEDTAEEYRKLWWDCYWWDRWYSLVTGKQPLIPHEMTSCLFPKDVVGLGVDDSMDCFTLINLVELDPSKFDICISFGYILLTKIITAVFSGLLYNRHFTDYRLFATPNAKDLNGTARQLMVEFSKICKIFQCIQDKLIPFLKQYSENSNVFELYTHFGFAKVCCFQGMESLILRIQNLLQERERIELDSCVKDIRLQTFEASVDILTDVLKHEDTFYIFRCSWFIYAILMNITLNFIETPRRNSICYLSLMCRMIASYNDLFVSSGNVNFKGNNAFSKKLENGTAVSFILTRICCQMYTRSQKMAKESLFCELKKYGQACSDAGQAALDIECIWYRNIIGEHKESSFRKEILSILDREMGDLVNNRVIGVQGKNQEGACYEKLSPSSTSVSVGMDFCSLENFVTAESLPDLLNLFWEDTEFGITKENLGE
- Test summary: PBM E-score (8-mer binding enrichment) (E-score (-0.5 to 0.5)); higher = stronger / more preferred TF binding
- Condition description: protein concentration: 100 nM; construct: GST-full length
The full ranking holds about 33,000 sequences; the median of “E-score (-0.5 to 0.5)” is about -0.016, and the highest 2% start at about 0.3. The full list was thinned out, with the highest values kept by preference.
// PBM E-score lookup, one value per entry
Metric: PBM E-score

- CGCCGAGC: 0.344
- AACATCAA: 0.156
- CTCCGAGC: 0.271
- ACGTCAAG: -0.124
- ACAGGCCC: -0.349
- AACCGAGT: 0.0155
- GCCAAAAA: 0.234
- GGCCGACA: 0.0888
- GAATACGA: 0.118
- TAGCTCCA: -0.0638
- AACCGAGC: 0.323

----------
- Measurement target: Yer184c (UniProt P39961)
- Sequence: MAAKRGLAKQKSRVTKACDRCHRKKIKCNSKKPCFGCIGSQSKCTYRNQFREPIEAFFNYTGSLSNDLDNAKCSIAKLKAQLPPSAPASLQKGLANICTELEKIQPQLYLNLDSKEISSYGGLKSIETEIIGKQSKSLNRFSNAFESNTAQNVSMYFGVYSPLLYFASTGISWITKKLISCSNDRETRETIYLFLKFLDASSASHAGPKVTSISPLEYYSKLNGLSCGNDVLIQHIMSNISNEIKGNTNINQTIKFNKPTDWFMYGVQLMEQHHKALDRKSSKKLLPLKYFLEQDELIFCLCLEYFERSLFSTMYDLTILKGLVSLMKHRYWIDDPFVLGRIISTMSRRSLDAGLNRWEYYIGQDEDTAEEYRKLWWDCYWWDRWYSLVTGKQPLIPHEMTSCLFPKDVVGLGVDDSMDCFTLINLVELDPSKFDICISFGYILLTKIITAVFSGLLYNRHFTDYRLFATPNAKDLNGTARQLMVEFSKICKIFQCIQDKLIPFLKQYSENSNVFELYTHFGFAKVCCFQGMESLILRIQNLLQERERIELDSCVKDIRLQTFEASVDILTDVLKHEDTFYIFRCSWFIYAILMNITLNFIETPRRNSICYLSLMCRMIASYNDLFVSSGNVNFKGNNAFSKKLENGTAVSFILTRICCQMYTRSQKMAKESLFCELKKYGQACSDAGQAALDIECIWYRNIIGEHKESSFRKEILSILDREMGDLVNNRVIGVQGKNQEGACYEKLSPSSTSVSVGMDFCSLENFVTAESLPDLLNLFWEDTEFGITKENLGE
- Test summary: PBM E-score (8-mer binding enrichment) (E-score (-0.5 to 0.5)); higher = stronger / more preferred TF binding
- Condition description: protein concentration: 100 nM; construct: GST-full length
Over roughly 33,000 sequences, “E-score (-0.5 to 0.5)” has its median near -0.016; the highest 2% begin near 0.3. This excerpt belongs to a sample that is enriched for the highest values.
Metric: PBM E-score

* CGGACGAC | 0.23
* CAAACAAG | 0.0388
* AACCAAAA | 0.0925
* CATCAATG | -0.0256
* CCAATCGC | -0.072
* CGGACAAA | 0.353
* GGGACGAA | 0.0852
* GACCAAAA | 0.309
* GGGACAAC | -0.0988
* AGGACAAC | 0.0373
* CGGACGAA | 0.353

----------
- Measurement target: Yer184c (UniProt P39961)
- Sequence: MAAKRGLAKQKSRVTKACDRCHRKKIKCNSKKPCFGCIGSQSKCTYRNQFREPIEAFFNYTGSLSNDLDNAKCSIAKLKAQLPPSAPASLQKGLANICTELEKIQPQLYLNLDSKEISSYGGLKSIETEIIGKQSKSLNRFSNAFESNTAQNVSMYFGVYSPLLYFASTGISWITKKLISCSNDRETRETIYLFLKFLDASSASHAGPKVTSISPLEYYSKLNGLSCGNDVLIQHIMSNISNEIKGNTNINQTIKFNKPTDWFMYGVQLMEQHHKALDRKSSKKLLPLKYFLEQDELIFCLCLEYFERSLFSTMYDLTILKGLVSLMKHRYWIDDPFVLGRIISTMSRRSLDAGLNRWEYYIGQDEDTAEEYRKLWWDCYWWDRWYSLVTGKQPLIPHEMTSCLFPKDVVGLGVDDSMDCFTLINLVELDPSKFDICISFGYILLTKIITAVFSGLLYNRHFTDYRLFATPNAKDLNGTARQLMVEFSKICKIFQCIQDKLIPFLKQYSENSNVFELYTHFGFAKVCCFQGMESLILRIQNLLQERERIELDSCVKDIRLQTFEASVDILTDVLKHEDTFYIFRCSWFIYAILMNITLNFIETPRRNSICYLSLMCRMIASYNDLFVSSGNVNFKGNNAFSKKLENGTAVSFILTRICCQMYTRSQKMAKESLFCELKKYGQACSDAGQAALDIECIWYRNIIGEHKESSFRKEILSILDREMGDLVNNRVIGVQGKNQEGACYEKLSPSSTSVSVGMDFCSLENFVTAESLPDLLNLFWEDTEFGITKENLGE
- Test summary: PBM E-score (8-mer binding enrichment) (E-score (-0.5 to 0.5)); higher = stronger / more preferred TF binding
- Condition description: protein concentration: 100 nM; construct: GST-full length
In all, about 33,000 sequences were measured (“E-score (-0.5 to 0.5)”: median about -0.016, highest 2% from about 0.3 on). The sample as a whole holds a higher share of the highest values than the screen did.
Use Met when the recorded PBM E-score is no lower than 0.2; use Not met when it is lower.

* GACGGACA | Not met
* CAAAAGGG | Not met
* GTATACAA | Not met
* AAATGCCG | Met
* TAAAAGTA | Not met
* GCCGGGAA | Met
* CGATGCAA | Not met
* AATACCGC | Not met
* TTACCGAA | Met
* ACCGGACA | Not met
* ATACCGAC | Not met
* AATTTTAA | Met
* CAGAGGGG | Not met
* TGAGCACA | Not met
* TAGCACGA | Not met
* ACCGGGAA | Met
* GCCGGGGA | Not met
* GTACGAGA | Not met
* CCTCAGCG | Not met
* CACGGATC | Met
* ACCCTACA | Not met
* AAGCAGTA | Not met
* ACCCGGAC | Not met
* GAGAGGGC | Not met
* AATACCGT | Not met
* CCATCTTC | Not met
* AAGAAATA | Not met
* GTTTTAAA | Not met
* AACCGGAG | Met
* AATACCGG | Met
* GTACCGAA | Met
* AAGGATAT | Not met
* ATACCGAA | Met
* AGCATTTA | Not met
* TCGTACCA | Not met
* AGGCTTAC | Not met
* AGAGGCGC | Not met
* CACCGGAG | Not met
* AACCGGAC | Met
* TTATACAA | Met
* ATTTTAAC | Not met
* ATACCGAT | Not met
* AAGTGTCA | Not met
* CAGGGAAA | Not met
* GACGCATA | Not met
* CCCCGGAC | Not met
* GCCGGATA | Met
* AACCGGGA | Not met
* CCAGACCC | Not met
* GACCGGAA | Met
* AACCGGTC | Met
* CACTAGGC | Not met
* CCAATTGG | Not met
* GCCGGACC | Met
* GTGAGGGA | Not met
* GCCGGGAC | Met
* CCGATTCA | Not met
* AACCGGTG | Met
* GCCGGACA | Met
* CAGTGTGA | Not met
* ACTCATTA | Not met
* CCCGGACA | Met
* TAAGGTGA | Not met
* AGCTACCA | Not met
* CCGATTCC | Not met
* CGCGGAGA | Met
* AACCGGAA | Met
* CCAAGCGG | Not met
* TACGTCTA | Not met
* ACGCCAGA | Not met
* ATTTTATG | Met
* CCGATTCG | Met
* AATTTATA | Met
* TCGCCAAA | Not met
* AACCCGAA | Not met
* CGAGGTTC | Not met
* CGTAAGCA | Not met
* ACGCCGAT | Not met
* CTGTGTTC | Not met
* CTCCGGAC | Met
* TCCGGACA | Met
* GCGCCGTA | Met
* AAATGCCC | Not met
* AGGCGAGG | Not met
* CCCCATCG | Not met
* GATAACAC | Not met
